- Species on record: Rattus norvegicus
- METHOD NOTES: Selectivity index, ratio of IC50 for HO-1 in Sprague-Dawley rat spleen microsomal fractions to IC50 for HO-2 in Sprague-Dawley rat brain microsomal fractions
- Type: microsomes
- CONDITION PARAMETERS: Microsome
Listing of entries alongside the reported Ratio IC50.
EXPERIMENTAL READOUT: Ratio IC50

CC(C)c1ccc(Cn2c(CN3CCCC3)nc3ccccc32)cc1; > 1.8
Clc1ccc(Cn2c(CN3CCCC3)nc3ccccc32)cc1; > 29
Ic1ccc(Cn2c(CN3CCCC3)nc3ccccc32)cc1; > 13
COc1ccc(Cn2c(CN3CCCC3)nc3ccccc32)cc1; > 5
